system: Tyrosinase; settings: 0.025 mmol/L; after 5 min reaction
As shown below, each of these sequences has a reported Inhibitory rate on tyrosinase value.
Express it in %; write the number only.

primary-sequence | numeric-result
NFDEIDRSSMPFPYAI [BommoOKA_type2] | 6.69
YDYISPYG [BommoOKA_type5] | -2.68
NFDEIDRSSLNTFV [BommoOKA_type1] | 5.16
FYHLYGQNFLDIDSPVSSFD [BommoOKA_type3] | 5.54

Proceed to the following item.
Query: Report Inhibitory rate on tyrosinase for EARHSGYLPYQMF [BommoOKA_type4] please.
Result: 13.96

----------
We begin with a simple list: items and their reported Inhibitory rate on tyrosinase, Average.
tested on: Tyrosinase; conditions: average over 5, 0.1, 0.05 and 0.025 mmol/L; after 5 min reaction
Remember to quote the unit after the number.

// known answers, use as guide
primary-sequence | target | Inhibitory rate on tyrosinase, Average
NLDSLGGANF [BommoOKB_type1] | Tyrosinase | 9.32±8.66%
NFDEIDRSSLNTFV [BommoOKA_type1] | Tyrosinase | 4.73±1.48%

Query: Provide value of Inhibitory rate on tyrosinase, Average for this record tested with Tyrosinase: YDYISPYG [BommoOKA_type5]
Result: 1.58±3.28%

Query: Query for Tyrosinase: what Inhibitory rate on tyrosinase, Average does the record show for NFDEIDRSSMPFPYAI [BommoOKA_type2] ?
Result: 7.02±1.88%

Query: Record lookup: for Tyrosinase, what Inhibitory rate on tyrosinase, Average belongs to FYHLYGQNFLDIDSPVSSFD [BommoOKA_type3] ?
Result: 8.27±2.42%

Query: Item: EARHSGYLPYQMF [BommoOKA_type4] Test system: Tyrosinase Read-out: Inhibitory rate on tyrosinase, Average Value: ?
Result: 15.49±3.17%

Numbers sourced from paper PMC11817372.
